Reference for the values: paper PMC9393165

methodDescription: Tacrolimus whole blood concentration, trough and 12-h AUC after kidney transplantation (chemiluminescent microparticle immunoassay)
Type: in vivo, human
details: human, whole blood, oral, 30 mg, day 1 post-transplantation; CYP3A5 expressers, diltiazem 30 mg every 12 h (n = 11); mean ± SD
parameterMeasured: C0 (ng/mL)

[
  {
    "smilesStructure": "C=CC[C@@H]1/C=C(\\C)C[C@H](C)C[C@H](OC)[C@H]2O[C@@](O)(C(=O)C(=O)N3CCCC[C@H]3C(=O)O[C@H](/C(C)=C/[C@@H]3CC[C@@H](O)[C@H](OC)C3)[C@H](C)[C@@H](O)CC1=O)[C@H](C)C[C@@H]2OC",
    "valueMeasured": 10.9
  }
]
